- Tested On: TNKS2 ARC4 (Homo sapiens)
- Construct: ankyrin repeat cluster 4 domain; FRET: 6xHis-mCerulean (CFP) fusion; DSF, NMR, crystal: MBP and His tag cleaved by TEV, residues 487-649 printed for crystal; E. coli BL21(DE3)
- Sequence (Q9H2K2 487-649): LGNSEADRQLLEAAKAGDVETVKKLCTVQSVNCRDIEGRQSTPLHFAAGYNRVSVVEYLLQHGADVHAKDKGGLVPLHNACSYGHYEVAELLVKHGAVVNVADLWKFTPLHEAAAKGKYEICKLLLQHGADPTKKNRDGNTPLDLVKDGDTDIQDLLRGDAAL
- Set-up: DSF thermal shift of TNKS2 ARC4, stabilization over DMSO control
- Condition Summary: binder
# ΔTm ± SD (°C) per entry

Which ΔTm ± SD (°C) is listed for CCN(CC)CCCN1C(=O)C(O)=C(C(=O)c2ccc3c(c2)OCCO3)C1c1ccc(C)cc1 (centres unmarked) [compound 20] ?
3.43 ± 0.66 °C

Which ΔTm ± SD (°C) is listed for COCCCN1C(=O)C(O)=C(C(=O)c2ccc3c(c2)OCCO3)C1c1ccccc1 (centres unmarked) [compound 40, 40] ?
0.47 ± 0.31 °C

Which ΔTm ± SD (°C) is listed for CCN(CC)CCN1C(=O)C(O)=C(C(=O)c2ccc3c(c2)OCCO3)C1c1cccc(O)c1 (centres unmarked) [compound 14, 14] ?
1.40 ± 0.36 °C

Which ΔTm ± SD (°C) is listed for O=C(C1=C(O)C(=O)N(Cc2ccncc2)C1c1ccncc1)c1ccc2c(c1)OCCO2 (centres unmarked) [compound 44, 44] ?
0.21 ± 0.26 °C

Which ΔTm ± SD (°C) is listed for CCN(CC)CCCN1C(=O)C(O)=C(C(=O)c2ccc3c(c2)OCCO3)C1c1ccc(N)cc1 (centres unmarked) [S9] ?
2.78 ± 0.18 °C

Which ΔTm ± SD (°C) is listed for COc1cccc(C(=O)C2=C(O)C(=O)N(CCCN3CCOCC3)C2c2ccc(C)cc2)c1 (centres unmarked) [compound 33, 33] ?
0.36 ± 0.33 °C

Which ΔTm ± SD (°C) is listed for Cc1ccccc1COc1ccc(C(=O)C2=C(O)C(=O)N(CCCN(C)C)C2c2cccc(O)c2)cc1 (centres unmarked) [compound 28, 28] ?
-0.20 ± 0.22 °C

Which ΔTm ± SD (°C) is listed for CN(C)CCN1C(=O)C(O)=C(C(=O)c2ccc3c(c2)OCCO3)C1c1cccc(O)c1 (centres unmarked) [compound 17] ?
0.98 ± 0.32 °C

* * *

- Tested On: TNKS2 ARC4 (Homo sapiens)
- Construct: ankyrin repeat cluster 4 domain; FRET: 6xHis-mCerulean (CFP) fusion; DSF, NMR, crystal: MBP and His tag cleaved by TEV, residues 487-649 printed for crystal; E. coli BL21(DE3)
- Sequence (Q9H2K2 487-649): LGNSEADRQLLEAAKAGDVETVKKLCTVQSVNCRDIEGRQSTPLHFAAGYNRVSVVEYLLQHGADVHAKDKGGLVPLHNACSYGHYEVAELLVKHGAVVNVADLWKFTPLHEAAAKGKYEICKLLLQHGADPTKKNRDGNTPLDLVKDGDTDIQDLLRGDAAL
- Assay Remarks: biochemical
- Design: FRET competition: inhibition of CFP-ARC domain binding to YFP-REAGDGEE peptide
pIC50: −log10 of the molar value.
Label scheme for pIC50: lower than 4 is rule not met, 4 and above is rule met.

Example results:
O=C(C1=C(O)C(=O)N(Cc2ccccc2)C1c1cccc(O)c1)c1ccc2c(c1)OCCO2 (centres unmarked) [compound 36, 36]: rule met
N=C(N)NCCCN1C(=O)C(O)=C(C(=O)c2ccc3c(c2)OCCO3)C1c1ccccc1 (centres unmarked) [S3]: rule not met
O=C(C1=C(O)C(=O)N(CCCN2CCNCC2)C1c1cccc(O)c1)c1ccc2c(c1)OCCO2 (centres unmarked) [S2]: rule not met
O=C(C1=C(O)C(=O)N(Cc2ccncc2)C1c1ccncc1)c1ccc2c(c1)OCCO2 (centres unmarked) [compound 44, 44]: rule not met
COc1cccc(C(=O)C2=C(O)C(=O)N(CCCN3CCOCC3)C2c2ccc(C)cc2)c1 (centres unmarked) [compound 33, 33]: rule not met
Cc1ccc(C2C(C(=O)c3ccc4c(c3)OCCO4)=C(O)C(=O)N2Cc2ccccc2)cc1 (centres unmarked) [compound 37, 37]: rule met

Has COc1ccc(C(=O)C2=C(O)C(=O)N(CCCN3CCOCC3)C2c2ccc(C)cc2)cc1OC (centres unmarked) [compound 30, 30] a recorded pIC50 greater than or equal to 4?
rule not met

Has CCN(CC)CCCN1C(=O)C(O)=C(C(=O)c2ccc(OC)cc2)C1c1ccccc1 (centres unmarked) [compound 31, 31] a recorded pIC50 greater than or equal to 4?
rule not met

Has COc1cccc(C(=O)C2=C(O)C(=O)N(CCCN3CCOCC3)C2c2ccccc2)c1 (centres unmarked) [compound 32, 32] a recorded pIC50 greater than or equal to 4?
rule not met

Data provenance: paper doi:10.1101/2025.03.31.646301v1
